# TARGET OR SYSTEM: panel of 255 wild-type kinases (Homo sapiens)
# METHOD DESCRIPTION: Kinase panel profiling at 1 µmol/L (MSA or IMAP), percentage inhibition
# Assay type: biochemical
# MEASUREMENT CONDITIONS: kinase CK1γ2; 1 µmol/L single concentration; read-out: %-inhibition at 1 µmol/L, CK1γ2
REPORTED PROPERTY: inhibition at 1 µM (%)
Answer format: numeric, % implied, no suffix.

In the examples that follow, each entry is paired with its recorded inhibition at 1 µM.
>  <COMPOUND>
CCc1nc(C(N)=O)c(Nc2ccc(N3CCC(N4CCN(C)CC4)CC3)c(OC)c2)nc1NC1CCOCC1 [gilteritinib]

>  <inhibition at 1 µM (%)>
6.55

$$$$
>  <COMPOUND>
FC(F)(F)c1ccc(CNc2ccc(Cc3c[nH]c4ncc(Cl)cc34)cn2)cn1 [pexidartinib]

>  <inhibition at 1 µM (%)>
-0.864

$$$$
>  <COMPOUND>
C[C@H](Nc1ncnc2nc[nH]c12)c1cc2cccc(Cl)c2c(=O)n1-c1ccccc1 [duvelisib]

>  <inhibition at 1 µM (%)>
2.74

$$$$
>  <COMPOUND>
O=C(Nc1cnn2ccc(N3CCC[C@@H]3c3cc(F)ccc3F)nc12)N1CC[C@H](O)C1 [larotrectinib]

>  <inhibition at 1 µM (%)>
-7

$$$$
>  <COMPOUND>
CCN1C(=O)N(c2c(F)c(OC)cc(OC)c2F)Cc2cnc3[nH]c(CN4CCOCC4)cc3c21 [pemigatinib]

>  <inhibition at 1 µM (%)>
-9

$$$$

GET /values?item= COc1cc2ncnc(Nc3ccc(F)c(Cl)c3)c2cc1NC(=O)/C=C/CN1CCCCC1 [dacomitinib] &system= panel of 255 wild-type kinases (Homo sapiens) returns inhibition at 1 µM: -1.63

GET /values?item= Cn1cnc2c(F)c(Nc3ccc(Br)cc3F)c(C(=O)NOCCO)cc21 [binimetinib] &system= panel of 255 wild-type kinases (Homo sapiens) returns inhibition at 1 µM: -0.416

GET /values?item= Cn1cc(-c2cc3c(N4CCN(c5ncc([C@@](C)(N)c6ccc(F)cc6)cn5)CC4)ncnn3c2)cn1 [avapritinib] &system= panel of 255 wild-type kinases (Homo sapiens) returns inhibition at 1 µM: 7

* * *

# TARGET OR SYSTEM: panel of 255 wild-type kinases (Homo sapiens)
# METHOD DESCRIPTION: Kinase panel profiling at 1 µmol/L (MSA or IMAP), percentage inhibition
# Assay type: biochemical
# MEASUREMENT CONDITIONS: kinase PKCα; 1 µmol/L single concentration; read-out: %-inhibition at 1 µmol/L, PKCα
REPORTED PROPERTY: inhibition at 1 µM (%)
Answer format: numeric, % implied, no suffix.

In the examples that follow, each entry is paired with its recorded inhibition at 1 µM.
>  <SMILES INPUT>
CCN1CCN(c2ccc(Nc3cc(N(C)C(=O)Nc4c(Cl)c(OC)cc(OC)c4Cl)ncn3)cc2)CC1

>  <REPORTED PROPERTY>
inhibition at 1 µM

>  <MEASUREMENT UNIT>
%

>  <REPORTED MEASUREMENT>
-4

$$$$
>  <SMILES INPUT>
CN1CCN(c2ccc(C(=O)Nc3n[nH]c4ccc(Cc5cc(F)cc(F)c5)cc34)c(NC3CCOCC3)c2)CC1

>  <REPORTED PROPERTY>
inhibition at 1 µM

>  <MEASUREMENT UNIT>
%

>  <REPORTED MEASUREMENT>
20

$$$$
>  <SMILES INPUT>
COc1ccc(CN2C3CC2CN(c2ccc(-c4cc(OCC(C)(C)O)cn5ncc(C#N)c45)cn2)C3)cn1

>  <REPORTED PROPERTY>
inhibition at 1 µM

>  <MEASUREMENT UNIT>
%

>  <REPORTED MEASUREMENT>
3.23

$$$$

GET /values?item= O=C(Nc1cnn2ccc(N3CCC[C@@H]3c3cc(F)ccc3F)nc12)N1CC[C@H](O)C1 &system= panel of 255 wild-type kinases (Homo sapiens) returns inhibition at 1 µM: -3

GET /values?item= FC(F)(F)c1ccc(CNc2ccc(Cc3c[nH]c4ncc(Cl)cc34)cn2)cn1 &system= panel of 255 wild-type kinases (Homo sapiens) returns inhibition at 1 µM: -8

GET /values?item= Cn1cnc2c(F)c(Nc3ccc(Br)cc3Cl)c(C(=O)NOCCO)cc21 &system= panel of 255 wild-type kinases (Homo sapiens) returns inhibition at 1 µM: 0.203

GET /values?item= CO[C@]1(C(=O)N[C@@H](C)c2ccc(-n3cc(F)cn3)nc2)CC[C@H](c2nc(C)cc(Nc3cc(C)[nH]n3)n2)CC1 &system= panel of 255 wild-type kinases (Homo sapiens) returns inhibition at 1 µM: 3

* * *

# TARGET OR SYSTEM: panel of 255 wild-type kinases (Homo sapiens)
# METHOD DESCRIPTION: Kinase panel profiling at 1 µmol/L (MSA or IMAP), percentage inhibition
# Assay type: biochemical
# MEASUREMENT CONDITIONS: kinase HCK; 1 µmol/L single concentration; read-out: %-inhibition at 1 µmol/L, HCK
Record Yes whenever inhibition at 1 µM is at 50% or higher; record No when lower.

These recorded examples may help you get a feel for the data.
>  <COMPOUND>
CN1CCN(c2ccc(C(=O)Nc3n[nH]c4ccc(Cc5cc(F)cc(F)c5)cc34)c(NC3CCOCC3)c2)CC1 [entrectinib]

>  <TARGET OR SYSTEM>
panel of 255 wild-type kinases (Homo sapiens)

>  <CLASS LABEL>
Yes

$$$$
>  <COMPOUND>
COc1ccc(CN2C3CC2CN(c2ccc(-c4cc(OCC(C)(C)O)cn5ncc(C#N)c45)cn2)C3)cn1 [selpercatinib]

>  <TARGET OR SYSTEM>
panel of 255 wild-type kinases (Homo sapiens)

>  <CLASS LABEL>
Yes

$$$$
>  <COMPOUND>
C[C@H](Nc1ncnc2nc[nH]c12)c1cc2cccc(Cl)c2c(=O)n1-c1ccccc1 [duvelisib]

>  <TARGET OR SYSTEM>
panel of 255 wild-type kinases (Homo sapiens)

>  <CLASS LABEL>
No

$$$$
>  <COMPOUND>
CO[C@]1(C(=O)N[C@@H](C)c2ccc(-n3cc(F)cn3)nc2)CC[C@H](c2nc(C)cc(Nc3cc(C)[nH]n3)n2)CC1 [pralsetinib]

>  <TARGET OR SYSTEM>
panel of 255 wild-type kinases (Homo sapiens)

>  <CLASS LABEL>
Yes

$$$$
>  <COMPOUND>
Cn1cnc2c(F)c(Nc3ccc(Br)cc3Cl)c(C(=O)NOCCO)cc21 [selumetinib]

>  <TARGET OR SYSTEM>
panel of 255 wild-type kinases (Homo sapiens)

>  <CLASS LABEL>
No

$$$$

Answer whether inhibition at 1 µM of O=C(Nc1cnn2ccc(N3CCC[C@@H]3c3cc(F)ccc3F)nc12)N1CC[C@H](O)C1 [larotrectinib] is greater than or equal to 50%.
No

Answer whether inhibition at 1 µM of FC(F)(F)c1ccc(CNc2ccc(Cc3c[nH]c4ncc(Cl)cc34)cn2)cn1 [pexidartinib] is greater than or equal to 50%.
No

Answer whether inhibition at 1 µM of Cn1cnc2c(F)c(Nc3ccc(Br)cc3F)c(C(=O)NOCCO)cc21 [binimetinib] is greater than or equal to 50%.
No

Answer whether inhibition at 1 µM of CCN1C(=O)N(c2c(F)c(OC)cc(OC)c2F)Cc2cnc3[nH]c(CN4CCOCC4)cc3c21 [pemigatinib] is greater than or equal to 50%.
No

Answer whether inhibition at 1 µM of CCc1nc(C(N)=O)c(Nc2ccc(N3CCC(N4CCN(C)CC4)CC3)c(OC)c2)nc1NC1CCOCC1 [gilteritinib] is greater than or equal to 50%.
Yes

Answer whether inhibition at 1 µM of Cn1cc(-c2cc3c(N4CCN(c5ncc([C@@](C)(N)c6ccc(F)cc6)cn5)CC4)ncnn3c2)cn1 [avapritinib] is greater than or equal to 50%.
Yes

Answer whether inhibition at 1 µM of Cc1nc(NC(=O)N2CCC[C@H]2C(N)=O)sc1-c1ccnc(C(C)(C)C(F)(F)F)c1 [alpelisib] is greater than or equal to 50%.
No

Answer whether inhibition at 1 µM of CCn1c(=O)c(-c2cc(NC(=O)Nc3ccccc3)c(F)cc2Br)cc2cnc(NC)cc21 [ripretinib] is greater than or equal to 50%.
Yes

Answer whether inhibition at 1 µM of COC(=O)N[C@@H](C)CNc1nccc(-c2cn(C(C)C)nc2-c2cc(Cl)cc(NS(C)(=O)=O)c2F)n1 [encorafenib] is greater than or equal to 50%.
No

Answer whether inhibition at 1 µM of CCN1CCN(c2ccc(Nc3cc(N(C)C(=O)Nc4c(Cl)c(OC)cc(OC)c4Cl)ncn3)cc2)CC1 [infigratinib] is greater than or equal to 50%.
No
